This collection of values is drawn from patent US20220195057A1.

target: T1, human chemokine (C-C motif) receptor 8 (CCR8) protein (human, UniProt P51685 1-355); assay: cell binding, CCR8-expressing CHO-K1 cells, curve fit
T1 construct: whole, on cells; also called human CCR8
PROPERTY LABEL: Bottom
No unit in the answer, please; the number alone is enough.

Entry 88-xi (antibody, V domains shown, also called 88D2C6; chimeric 88D2C6) VH: EVQLVETGGGLVQPKGSLKLSCAASGFTFNPNAMNWVRQAPGKGLEWVARIRSKSNNYATYYADSVKDRFTISRDDSQSMLYLQMNNLKTEDTAMYYCVRGKDDGYRHYAMDYWGQGTSVTVSS VL: DIVMTQAAPSVPVTPGESVSISCRSSKSLLHSNGNTYLYWFLQRPGQSPQLLIYRMSNLASGVPDRFSGSGSGTAFTLRISRVEAEDVGVYYCMQHLEYPFTFGAGTKLELK , Bottom reported as 3630

Entry 88-H1L2 (antibody, V domains shown, Humanized 88D2C6) VH: EVQLVESGGGLVQPGGSLKLSCAASGFTFNPNAMNWVRQASGKGLEWVGRIRSKSNNYATYYADSVKDRFTISRDDSKNTAYLQMNSLKTEDTAVYYCTRGKDDGYRHYAMDYWGQGTTVTVSS VL: DIVMTQSPLSLPVTPGEPASISCRSSKSLLHSNANTYLYWFLQKPGQSPQLLIYRMSNLASGVPDRFSGSGSGTAFTLKISRVEAEDVGVYYCMQHLEYPFTFGGGTKVEIK , Bottom reported as 2670
